B1: IFRG15 (parent)
chain: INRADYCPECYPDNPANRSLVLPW

Variants of: B1
Assay Overview: protein stability index of a GFP-peptide fusion (GPS, HEK-293T) (PSI 1-6); higher = more stable;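 note: lentivirally expressed fusions sorted by FACS into six bins by GFP to DsRed ratio, PSI derived from sequencing read proportions per bin multiplied by bin number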
Settings: c terminus: a fixed tail appended
Outcome Measure: protein stability index
Answer field: number only, no words.

// Input: INRADYCPECYPDNPANRSLKLPW [V21K] . Output its protein stability index only. 1.98
